Below, each of the compounds is paired with its reported inhibition at 1 µM value.
target: human GnRH receptor (Homo sapiens); construct: expressed in transfected cells; host or cells: HEK 293 (hGnRH-R/293, from Dr. Stuart Sealfon); experiment: Radioligand binding, 125I-GnRH-A displacement, membranes of HEK 293 cells with human GnRH receptor; details: 1 uM; read-out: % Inhib. @ 1 uM hGnRH
measure: inhibition at 1 µM (%)

• Cc1cc2c(cc1Cc1ccc(C(=O)NCc3ccccc3Br)o1)C(C)(C)CCC2(C)C [drawing 1223] = 57
• Cc1cc2c(cc1Cc1ccc(C(=O)NCC3CCC(C(=O)O)CC3)o1)C(C)(C)CCC2(C)C (centres unmarked) [drawing 1024] = 66
• Cc1cc2c(cc1Cc1ccc(C(=O)NCCCCCC(=O)O)o1)C(C)(C)CCC2(C)C = -12
• Cc1cc2c(cc1Cc1ccc(C(=O)N(C)[C@@H](C)[C@@H](O)c3ccccc3)o1)C(C)(C)CCC2(C)C = -11
• Cc1cc2c(cc1Cc1ccc(C(=O)NCCO)o1)C(C)(C)CCC2(C)C [drawing 1178] = 1
• Cc1cc2c(cc1Cc1ccc(C(=O)NCCN(C)C)o1)C(C)(C)CCC2(C)C = -4
• COc1ccc(OC)c(CCNC(=O)c2ccc(Cc3cc4c(cc3C)C(C)(C)CCC4(C)C)o2)c1 [drawing 996] = 23
• Cc1cc2c(cc1Cc1ccc(C(=O)NCC(c3ccccc3)c3ccccc3)o1)C(C)(C)CCC2(C)C = -21
• COc1cc(CNC(=O)c2ccc(Cc3cc4c(cc3C)C(C)(C)CCC4(C)C)o2)cc(OC)c1OC [drawing 995] = 60
• Cc1cc2c(cc1Cc1ccc(C(=O)NCCc3cccc(C(F)(F)F)c3)o1)C(C)(C)CCC2(C)C [drawing 1020] = 33
• CCOc1ccccc1CNC(=O)c1ccc(Cc2cc3c(cc2C)C(C)(C)CCC3(C)C)o1 [drawing 1096] = 48
• Cc1cc2c(cc1Cc1ccc(C(=O)NCc3ccc(F)c(C(F)(F)F)c3)o1)C(C)(C)CCC2(C)C = 11
• Cc1cc2c(cc1Cc1ccc(C(=O)NC3CCN(Cc4ccccc4)CC3)o1)C(C)(C)CCC2(C)C = -12
• COc1ccc(OC)c(C(O)C(C)NC(=O)c2ccc(Cc3cc4c(cc3C)C(C)(C)CCC4(C)C)o2)c1 (centres unmarked) = -6
• CCN(CCc1ccccn1)C(=O)c1ccc(Cc2cc3c(cc2C)C(C)(C)CCC3(C)C)o1 = 12
• COc1cc(CCNC(=O)c2ccc(Cc3cc4c(cc3C)C(C)(C)CCC4(C)C)o2)cc(OC)c1O [drawing 1061] = 44
• Cc1cc2c(cc1Cc1ccc(C(=O)NCCc3ccc(Br)cc3)o1)C(C)(C)CCC2(C)C [drawing 1171] = 16

* * *

molecular target: human GnRH receptor (Homo sapiens); construct: expressed in transfected cells; host or cells: HEK 293 (hGnRH-R/293, from Dr. Stuart Sealfon); assay: Radioligand binding, 125I-GnRH-A displacement, membranes of HEK 293 cells with human GnRH receptor; details: 10 uM; read-out: % inhib. @ 10 uM hGnRH
Please note: y applies when inhibition at 10 µM is -20% or greater, and n applies otherwise.

- Cc1cc2c(cc1Cc1ccc(C(=O)Nn3c(O)nnc3-c3ccncc3)o1)C(C)(C)CCC2(C)C: y
- Cc1cc2c(cc1Cc1ccc(C(=O)Nn3c(N)nc(C(F)(F)F)cc3=O)o1)C(C)(C)CCC2(C)C: y
- Cc1cc2c(cc1Cc1ccc(C(=O)NN3C(=O)c4ccccc4C3=O)o1)C(C)(C)CCC2(C)C: y
- Cc1cc2c(cc1Cc1ccc(C(=O)Nn3c(O)nnc3-c3ccccc3)o1)C(C)(C)CCC2(C)C: n
- Cc1ccc2nc(C)n(NC(=O)c3ccc(Cc4cc5c(cc4C)C(C)(C)CCC5(C)C)o3)c(=O)c2c1: y

* * *

biological target: AchE (Homo sapiens)
Sequence (P22303 32-614): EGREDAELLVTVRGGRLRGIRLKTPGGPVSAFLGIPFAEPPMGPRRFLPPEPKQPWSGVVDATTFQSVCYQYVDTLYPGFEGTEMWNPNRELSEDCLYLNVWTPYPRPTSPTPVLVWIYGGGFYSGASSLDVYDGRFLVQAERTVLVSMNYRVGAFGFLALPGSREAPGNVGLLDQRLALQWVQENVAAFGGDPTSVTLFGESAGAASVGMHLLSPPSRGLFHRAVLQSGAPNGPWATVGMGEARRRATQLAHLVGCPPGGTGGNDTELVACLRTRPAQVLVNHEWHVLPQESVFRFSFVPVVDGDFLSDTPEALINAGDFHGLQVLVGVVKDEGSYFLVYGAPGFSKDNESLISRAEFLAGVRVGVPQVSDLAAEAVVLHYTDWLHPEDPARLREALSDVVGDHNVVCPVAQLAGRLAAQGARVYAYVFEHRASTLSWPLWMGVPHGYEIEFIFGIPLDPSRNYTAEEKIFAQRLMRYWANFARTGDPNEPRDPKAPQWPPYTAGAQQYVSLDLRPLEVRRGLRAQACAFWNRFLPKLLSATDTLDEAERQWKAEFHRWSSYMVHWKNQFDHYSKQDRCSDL
measure: Ki

* COc1cccc(OC)c1NC(=O)c1ccc(Cc2cc3c(cc2C)C(C)(C)CCC3(C)C)o1 [Compound 20] | > 1000 nM

* * *

target: human GnRH receptor (Homo sapiens, UniProt P30968); construct: expressed in transfected cells; host or cells: HEK 293 (hGnRH-R/293, from Dr. Stuart Sealfon); test: Radioligand binding, 125I-GnRH-A displacement, membranes of HEK 293 cells with human GnRH receptor; settings: 1 h, substrate remaining; 10 uM compound; closer to zero = closer to 100% inhibition; read-out: S%R 10 uM hGnRHR
Sequence (P30968 whole entry): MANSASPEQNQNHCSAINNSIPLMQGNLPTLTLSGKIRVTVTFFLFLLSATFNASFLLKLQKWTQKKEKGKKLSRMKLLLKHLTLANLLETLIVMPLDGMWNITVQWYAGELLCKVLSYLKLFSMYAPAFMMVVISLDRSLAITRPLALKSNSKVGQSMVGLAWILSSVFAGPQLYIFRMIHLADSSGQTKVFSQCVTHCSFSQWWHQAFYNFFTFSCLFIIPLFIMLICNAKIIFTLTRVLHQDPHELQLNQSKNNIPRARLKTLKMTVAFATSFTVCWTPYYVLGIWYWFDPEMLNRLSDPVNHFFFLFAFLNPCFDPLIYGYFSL
Listing of entries alongside the reported remaining activity at 10 µM.
measure: remaining activity at 10 µM (%)

- CCOc1ccc(NC(=O)c2ccc(Cc3cc4c(cc3C)C(C)(C)CCC4(C)C)o2)cc1 [Compound 338]: 26
- CNc1ccccc1NC(=O)c1ccc(Cc2cc3c(cc2C)C(C)(C)CCC3(C)C)o1 [Compound 350]: 10
- Cc1cc2c(cc1Cc1ccc(C(=O)Nc3c(C)cccc3O)o1)C(C)(C)CCC2(C)C [Compound 373]: 19
- Cc1cc2c(cc1Cc1ccc(C(=O)Nc3ccc(O)cc3)o1)C(C)(C)CCC2(C)C [Compound 340]: 28

* * *

Biological target: mouse GnRH receptor (Mus musculus)
Construct: expressed in transfected cells; host or cells: 293 cells
Sequence (Q01776 1-327): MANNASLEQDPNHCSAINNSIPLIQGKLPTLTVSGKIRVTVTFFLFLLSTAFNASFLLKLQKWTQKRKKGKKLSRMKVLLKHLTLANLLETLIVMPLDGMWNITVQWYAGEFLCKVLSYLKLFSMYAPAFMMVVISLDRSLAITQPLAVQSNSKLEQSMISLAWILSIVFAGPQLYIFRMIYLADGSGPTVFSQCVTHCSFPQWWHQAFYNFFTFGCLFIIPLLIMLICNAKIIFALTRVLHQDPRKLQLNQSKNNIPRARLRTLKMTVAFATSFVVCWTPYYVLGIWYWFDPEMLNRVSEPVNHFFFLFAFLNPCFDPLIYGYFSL
Assay: Radioligand binding, 125I-GnRH-A, 293 cells expressing mouse GnRH receptors
Details: 1 h, substrate remaining; 10 uM compound; closer to zero = closer to 100% inhibition; read-out: S%R 10 uM mGnRHR
measure: remaining activity at 10 µM (%)

* Cc1cc2c(cc1Cc1ccc(C(=O)N(CCCN3CCN(C)CC3)Cc3ccc(F)cc3)o1)C(C)(C)CCC2(C)C | -3
* COc1cccc(CCNC(=O)c2ccc(Cc3cc4c(cc3C)C(C)(C)CCC4(C)C)o2)c1 | 4
* Cc1cc2c(cc1Cc1ccc(C(=O)N(Cc3cccn3C)C3CCN(Cc4ccccc4)C3)o1)C(C)(C)CCC2(C)C (stereo not shown) | 2
* CC(=O)N(C)C1CCN(C(=O)c2ccc(Cc3cc4c(cc3C)C(C)(C)CCC4(C)C)o2)C1 (stereo not shown) | 27
* Cc1cc2c(cc1Cc1ccc(C(=O)N(CCC(c3ccccc3)c3ccccc3)Cc3ccccn3)o1)C(C)(C)CCC2(C)C | 51
* Cc1cc2c(cc1Cc1ccc(C(=O)NC3CCC(c4nccc(NCC5CCCO5)n4)C3)o1)C(C)(C)CCC2(C)C (stereo not shown) | 33
* Cc1cc2c(cc1Cc1ccc(C(=O)NCCCN3CCN(C)CC3)o1)C(C)(C)CCC2(C)C | -3

* * *

target: mouse GnRH receptor (Mus musculus); construct: expressed in transfected cells; host or cells: 293 cells; assay: Radioligand binding, 125I-GnRH-A, 293 cells expressing mouse GnRH receptors; conditions: 10 uM; read-out: % Inhib. @ 10 uM mGnRH
measure: inhibition at 10 µM

• Cc1cc2c(cc1Cc1ccc(C(=O)N(C)C3CCN(C)CC3)o1)C(C)(C)CCC2(C)C [drawing 1420] = 89%
• Cc1cc2c(cc1Cc1ccc(C(=O)NCC(C)(C)CN(C)C)o1)C(C)(C)CCC2(C)C [drawing 1507] = 98%
• Cc1cc2c(cc1Cc1ccc(C(=O)N(Cc3cccnc3)Cc3cccnc3)o1)C(C)(C)CCC2(C)C [drawing 1538] = 101%
• COc1ccc(CCN(CC(C)c2ccccc2)C(=O)c2ccc(Cc3cc4c(cc3C)C(C)(C)CCC4(C)C)o2)cc1OC (stereo not shown) = 72%

* * *

target: mouse GnRH receptor (Mus musculus); construct: expressed in transfected cells; host or cells: 293 cells; assay: Radioligand binding, 125I-GnRH-A, 293 cells expressing mouse GnRH receptors; details: read-out: mGnRH IC50
measure: IC50 (nM)

• COCCCNc1ccnc(NCc2cccc(CNC(=O)c3ccc(Cc4cc5c(cc4C)C(C)(C)CCC5(C)C)o3)c2)n1 = 21
• Cc1cnc(CNC(=O)c2ccc(Cc3cc4c(cc3C)C(C)(C)CCC4(C)C)o2)cn1 = 120
• COc1cc(OC)c(NC(=O)c2ccc(Cc3c(C)ccc4c3OCCC4(C)C)o2)c(OC)c1 = 65
• Cc1cc2c(cc1Cc1ccc(C(=O)NCC3CCCC(CNC(=O)C(F)(F)F)C3)o1)C(C)(C)CCC2(C)C (stereo not drawn) = 200
• Cc1ccccc1CNC(=O)c1ccc(Cc2cc3c(cc2C)C(C)(C)CCC3(C)C)o1 = 370
• Cc1cc2c(cc1Cc1ccc(C(=O)NCc3ccc(CNc4ncccn4)cc3)o1)C(C)(C)CCC2(C)C = 360
• Cc1cc2c(cc1Cc1ccc(C(=O)NCc3cccc(CNc4nccc(N5CCOCC5)n4)c3)o1)C(C)(C)CCC2(C)C = 13
• Cc1cc2c(cc1Cc1ccc(C(=O)NCc3cccnc3)o1)C(C)(C)CCC2(C)C = 630
• Cc1cc2c(cc1Cc1ccc(C(=O)NCC3CCC(CN)CC3)o1)C(C)(C)CCC2(C)C (stereo not drawn) = 710
• COc1cc(OC)c(NC(=O)c2ccc(Cc3cc4c(cc3C)OCCC4(C)C)o2)c(OC)c1 = 9.2
• Cc1cc2c(cc1Cc1ccc(C(=O)NCc3cccc(CN)c3)o1)C(C)(C)CCC2(C)C = 150
• COc1cc(OC)c(NC(=O)c2ccc(Cc3cc4c(cc3C)C(C)(C)CCC4(C)C)o2)c(OC)c1 = 3
• COc1cc(NC(=O)c2ccc(Cc3cc4c(cc3C)C(C)(C)CCC4(C)C)o2)cc(OC)c1OC = 38
• Cc1cc2c(cc1Cc1ccc(C(=O)Nc3ccc4[nH]ccc4c3)o1)C(C)(C)CCC2(C)C = 130
• Cc1cc2c(cc1Cc1ccc(C(=O)NCC3CCN(c4nccc(NCC5CCCO5)n4)CC3)o1)C(C)(C)CCC2(C)C (stereo not drawn) = 220
• COc1ccc(OC)c(NC(=O)c2ccc(Cc3cc4c(cc3C)C(C)(C)CCC4(C)C)o2)c1 = 84
• COc1cccc(OC)c1NC(=O)c1ccc(Cc2c(C)c(C)c(Br)c(C)c2C)o1 = 720
• Cc1cc2c(cc1Cc1ccc(C(=O)NC[C@H]3CC[C@@H](CNC(=N)N)CC3)o1)C(C)(C)CCC2(C)C = 2100
• COc1cccc(OC)c1NC(=O)c1ccc(Cc2c(C)cc(C)cc2C)o1 = 684
• COc1cc(OC)c(NC(=O)c2ccc(Cc3cc4c(cc3C)C(C)(C)CCC4(C)C)o2)c(OC)c1C#N = 7.3
• COc1cc(OC)c(NC(=O)c2ccc(Cc3c(OC)cc(C)c(Cl)c3C)o2)c(OC)c1 = 105
• Cc1cc2c(cc1Cc1ccc(C(=O)NCc3cccc(F)c3)o1)C(C)(C)CCC2(C)C = 630
• Cc1ccc(CNC(=O)c2ccc(Cc3cc4c(cc3C)C(C)(C)CCC4(C)C)o2)cc1C = 115
• Cc1cc2c(cc1Cc1ccc(C(=O)Nc3ccc4[nH]ncc4c3)o1)C(C)(C)CCC2(C)C = 140
• CCC(C)(C)c1ccc(OC)c(Cc2ccc(C(=O)Nc3c(OC)cccc3OC)o2)c1 = 24
• COc1ccc(CNC(=O)c2ccc(Cc3cc4c(cc3C)C(C)(C)CCC4(C)C)o2)c(OC)c1 = 220
• Cc1cc2c(cc1Cc1ccc(C(=O)NCC3CCC(CNC(=N)N)CC3)o1)C(C)(C)CCC2(C)C (stereo not drawn) = 2300
• Cc1cc2c(cc1Cc1ccc(C(=O)NCC3CCC(CNCc4cc(=O)[nH]c(=O)[nH]4)CC3)o1)C(C)(C)CCC2(C)C (stereo not drawn) = 790
• COc1cc(OC)c(NC(=O)c2ccc(Cc3cc4c(cc3C)C(C)(C)CC4(C)C)o2)c(OC)c1 = 3.1
• Cc1cc2c(cc1Cc1ccc(C(=O)NCc3cccc(CNc4nccc(NC[C@@H]5CCCO5)n4)c3)o1)C(C)(C)CCC2(C)C = 1.3
